In this section, each of the compounds is paired with its reported melting point.

Please indicate melting point recorded for CCOC(=O)/C=C/c1ccc(OCC(=O)Nc2cccc(C(=O)O)c2)cc1 202 to 203 °C

---

In this section, each of the compounds is paired with its reported melting point.

> print(dat)
                                   compound  endpointvalue
1  CC(C)c1ccc(OC2CCN(c3cccc(C(=O)O)c3)C2=O)cc1 (stereo not shown)  210 to 211 °C
2  Cc1cc(OCC(=O)Nc2ccc(Cl)c(C(=O)O)c2)ccc1C(C)C  174 to 175 °C
3  O=C(COc1ccc(Nc2ccccc2)cc1)Nc1cccc(C(=O)O)c1  214 to 215 °C
4  Cc1cc(OCC(=O)Nc2cccc(C(=O)O)c2)cc(C(C)C)c1  183 to 184 °C

Please indicate melting point recorded for CC(C)c1cccc(OCC(=O)Nc2cccc(C(=O)O)c2)c1 166 to 167 °C

Please indicate melting point recorded for O=C(COc1ccc(C(=O)O)cc1)Nc1cccc(C(=O)O)c1 260 to 261 °C

Please indicate melting point recorded for CC(C)c1ccc(COC2CCN(c3cccc(C(=O)O)c3)C2=O)cc1 (stereo not shown) 170 to 171 °C

Please indicate melting point recorded for CC(C)c1ccc(OCC(=O)Nc2cccc(C(=O)O)c2)cc1 171 to 174 °C

Please indicate melting point recorded for O=C(COc1ccc(OCc2ccccc2)cc1)Nc1cccc(C(=O)O)c1 208 to 210 °C

Please indicate melting point recorded for Cc1cc(OC(C)C(=O)Nc2cccc(C(=O)O)c2)ccc1C(C)C (stereo not shown) 186 to 187 °C

Please indicate melting point recorded for Cc1cc(OCC(=O)Nc2cccc(C(=O)O)c2C)ccc1C(C)C 148 to 171 °C

Please indicate melting point recorded for O=C(COc1ccc2c(c1)OCO2)Nc1cccc(C(=O)O)c1 191 to 194 °C

Please indicate melting point recorded for CC(C)c1ccc(C(=O)CC(=O)Nc2cccc(C(=O)O)c2)cc1 262 to 263 °C

Please indicate melting point recorded for Cc1cc(OCC(=O)Nc2cc(C(=O)O)ccc2Cl)ccc1C(C)C [Compound 31] 218 to 220 °C

Please indicate melting point recorded for O=C(COc1ccc([N+](=O)[O-])cn1)Nc1cccc(C(=O)O)c1 233 to 236 °C

Please indicate melting point recorded for Cc1cc(OCC(=O)Nc2cc(F)c(F)c(C(=O)O)c2F)ccc1C(C)C 200 to 208 °C

Please indicate melting point recorded for CCOc1ccc(OCC(=O)Nc2cccc(C(=O)O)c2)cc1 191 to 192 °C

Please indicate melting point recorded for Cc1cccc(OCC(=O)Nc2cccc(C(=O)O)c2)c1 200 to 201 °C

Please indicate melting point recorded for O=C(O)c1cccc(N2CCC(Oc3ccc4c(c3)OCO4)C2=O)c1 (stereo not shown) 194 to 197 °C

Please indicate melting point recorded for Cc1ccc(OC2CCN(c3cccc(C(=O)O)c3)C2=O)cc1C (stereo not shown) 201 to 205 °C

Please indicate melting point recorded for Cc1ccccc1-c1ccc(OCC(=O)Nc2cccc(C(=O)O)c2)cc1 220 to 221 °C

Please indicate melting point recorded for CC(C)c1ccc(OC2CCN(c3cccc(C(=O)[O-])c3)C2=O)cc1.[Na+] (stereo not shown) 164 to 165 °C

---

In this section, each of the compounds is paired with its reported melting point.

Would you please look over these solved cases?
> print(dat)
                                   compound  endpointvalue
1   O=C(COc1ccc2c(c1)CCC2)Nc1cccc(C(=O)O)c1  203 to 204 °C
2  CC(C)(c1ccccc1)c1ccc(OCC(=O)Nc2cccc(C(=O)O)c2)cc1  207 to 208 °C
3  O=C(COc1ccc(NC(=O)c2ccccc2)cc1)Nc1cccc(C(=O)O)c1  260 to 262 °C
4  O=C(COc1ccc(Nc2ccc([N+](=O)[O-])cc2[N+](=O)[O-])cc1)Nc1cccc(C(=O)O)c1  237 to 238 °C

Please indicate melting point recorded for Cc1ccc(OC2CCN(c3cccc(C(=O)O)c3)C2=O)cc1 (stereo not shown) 185 to 187 °C

Please indicate melting point recorded for Cc1ccc(C(C)C)c(OC(C)C(=O)Nc2cccc(C(=O)O)c2)c1 (stereo not shown) 161 to 163 °C

Please indicate melting point recorded for CCc1ccc(OCC(=O)Nc2cccc(C(=O)O)c2)cc1 209 to 211 °C
